assay_overview: Inhibition of bovine liver arginase assessed as reduction in urea production using L-arginine as substrate after 60 mins in presence of MnCl2 by alpha-isonitrosopropiophenone reagent based spectrophotometric analysis
Set-up: species or system Bos taurus
observation_type: IC50 (µM)
Answer format: numeric, µM implied, no suffix.

Reported IC50 of Oc1cc(O)cc(/C=C/c2ccc(O)c(O)c2)c1 : 12.6

Reported IC50 of Oc1cc(O)cc([C@@H]2c3c(/C=C/c4ccc(O)c(O)c4)cc(O)cc3O[C@H]2c2ccc(O)c(O)c2)c1 : 22.6

Reported IC50 of Oc1ccc([C@H]2Oc3cc(O)cc([C@@H]4[C@H](c5cc(O)cc(O)c5)[C@@H](c5ccc(O)cc5)O[C@@H]4c4ccc(O)cc4)c3[C@@H]2c2cc(O)cc3c2[C@@H](c2cc(O)cc(O)c2)[C@H](c2ccc(O)c(O)c2)O3)cc1 : 25.3

###

Give measured pIC50 for each item. Keep answers brief.
assay_overview: Inhibition of bovine liver arginase assessed as reduction in urea production using L-arginine as substrate after 60 mins in presence of MnCl2 by alpha-isonitrosopropiophenone reagent based spectrophotometric analysis
Set-up: species or system Bos taurus
// pIC50: -log10(molar conc.)

Reported pIC50 of Oc1ccc(/C=C/c2cc(O)cc3c2[C@H](c2cc(O)cc(O)c2)[C@@H](c2ccc(O)cc2)O3)cc1 : 4.56

Reported pIC50 of Oc1cc(O)cc([C@@H]2[C@@H](c3ccc(O)c(O)c3)c3cc(O)c(O)cc3[C@@H]3c4c(O)cc(O)cc4[C@@H]4c5c(cc(O)cc5[C@H]32)O[C@H]4c2ccc(O)c(O)c2)c1 : 4.91

Reported pIC50 of Oc1ccc([C@H]2c3c(O)cc(O)cc3[C@H]3c4c(cc(O)cc4[C@@H]2O)O[C@H]3c2ccc(O)cc2)cc1 : 3.74

Reported pIC50 of N=C(NO)NCC[C@H](N)C(=O)O [NOR-NOHA] : 5.77
